- System: A2780
- EXPERIMENT SUMMARY: BrdU proliferation assay, A2780
- ASSAY CONTEXT: Homo sapiens, A2780, 96 h, read-out: MLN8237 IC50, A2780, TAK-733 3.2 nM
QUANTITY MEASURED: IC50 (µM)
Field format: number, assumed µM, no unit text.

// query GET /values?readout=IC50&system=A2780&item= COc1cc(Nc2ncc3c(n2)-c2ccc(Cl)cc2C(c2c(F)cccc2OC)=NC3)ccc1C(=O)[O-].O.[Na+] [MLN8237, monohydrate]
// result 0.029
